B1: tRNA (parent)
chain: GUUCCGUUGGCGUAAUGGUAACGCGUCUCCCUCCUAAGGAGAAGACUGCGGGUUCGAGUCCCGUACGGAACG

Variants of: B1
Experiment: yeast fitness relative to wild type (ratio to wild type); higher = fitter; tRNA-Arg(CCU), competitive growth, 37 C, YPD
Variants at the floor of the assay were thinned out.
yeast fitness by entry:

{"Sequence string": "GUUCCGUUGGCGUAAUAAUAACGCGUCUCCCUCCUAAGGAGAAGACUGCGGGUUCGAGUCACGUACGGAACG [G17A G18A C61A]", "Result": "≤ 0.5"}

Task: Tell me the measured yeast fitness of GUUCCGUUGGCGUAAUGGUAACGCAUCACCCUCCUAAGGAGAAGACUGCGGGUUCGAGUCUCGUACCGAACG [G25A U28A C61U G67C] , please.
Output: ≤ 0.5

Task: Tell me the measured yeast fitness of GUUCCGUUGGCGUAAUGGUAACGCGUCUCCCUCGUUAGGAGAAGACUGCGGGUUCGAGUCCAGUACGGAACG [C34G A36U C62A] , please.
Output: ≤ 0.5

Task: Tell me the measured yeast fitness of GUUGCGUUGGCGUAAUGGUAACGCGUCUCCAUCCUAAGGAGAAGACUGCGGGUUCGAGUCUCGUACGGAACG [C4G C31A C61U] , please.
Output: ≤ 0.5

Task: Tell me the measured yeast fitness of GUUUCGUUGGCGUAAGGGUAACGCGUCUCCCUCCUAAGGAGAAGACUGCGGGUUCGAGUCCCGUAGGGAACG [C4U U16G C66G] , please.
Output: ≤ 0.5

Task: Tell me the measured yeast fitness of GUUCCGUUGGCGUAAUGGCUACGCGUCUUCCUCCUAAGGACAAGACUGCGGGUUCGAGUCCCGUACGGAACG [U19C A20U C29U G41C] , please.
Output: ≤ 0.5
